Listed here are compounds together with their documented normalized growth.
Method Notes: chemical genetic growth profiling, strain panel (AID 1159580);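 also: tested at 20 µM; growth read once vehicle control cultures reached saturation at 30 °C; 1 = growth at the plate median or of vehicle wells; lower values mean less growth of the strain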
Conditions: S. cerevisiae deletion strains, growth OD, locus YJL164C, strain tpk1, stronger effect = lower value
In all, about 5,500 compounds went through this assay and about 2,000 (36%) were called active. About 18% were inconclusive and are not listed. The list shows a part of the results.
Observation Type: normalized growth

compound="CCN[C@@H]1C[C@H](N)[C@@H](O[C@H]2OC(CN)=CC[C@H]2N)[C@H](O)[C@H]1OC1OC[C@](C)(O)[C@H](NC)[C@H]1O (stereo partly drawn)" observation_type="normalized growth" endpoint_result=0.996
compound="CN[C@@H]1[C@@H](O)C(OC2[C@@H](N)C[C@@H](N)[C@H](O[C@H]3O[C@H](C(C)O)[C@@H](O)[C@H](O)[C@H]3N)[C@H]2O)OC[C@]1(C)O (stereo partly drawn)" observation_type="normalized growth" endpoint_result=0.984
compound="CN[C@@H]1C(O)[C@@H](O[C@@H]2[C@@H](O)[C@H](O[C@H]3OC(CN)=CC[C@H]3N)[C@@H](N)C[C@H]2N)OC[C@]1(C)O (stereo partly drawn)" observation_type="normalized growth" endpoint_result=1.01
